Target: T1, recombinant human MCP-3 (human, UniProt P80098 24-99)
T1 construct: also called rhMCP-3
T1 sequence (P80098 24-99 limits assumed): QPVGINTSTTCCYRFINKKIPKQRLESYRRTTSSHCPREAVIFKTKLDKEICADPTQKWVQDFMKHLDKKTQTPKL
Assay: ELISA, coated antigen
Lab note: anything with ELISA OD below 0.07 OD450 is marked MET; values at 0.07 OD450 or higher are marked NOT MET.

{"columns": ["binder", "assigned_class"],
 "data": [
  ["anti-MCP-1 mAb 1.2.1 (antibody, V domains shown) VH: QVQLVQSGAEVKKPGASVKVSCKVSGYTFTELSMHWVRQAPGKGLEWMGGFDPEDGETSYAQKFRGRVTMTEDTSTDTAHMELSSLRSEDTAVYYCATNDFWSGYFDYWGQGTLVTVSS VL: DIQMTQSPSSVSASVGDRVTITCRASQGIDIYLAWYQQKPGKAPKLLINAASSLQNGVPSRFGGSGSGTDFTLTISGLQPEDFATYYCQLTYFFPWTFGQGTKVEIKR", "MET"],
  ["anti-MCP-1 mAb 3.2 (antibody, V domains shown, also called 3.2 (neat)) VH: QVQLVQSGAEVKKPGASVKVSCKVSGYTLSELSMHWVRQAPGKGLEWMGGFDPEDGEIIHAQKFQGRVTMTEDTSTDTAYMELSSLRSEDTAVYYCATGDFWSGYYLDWWGQGTLVTVSS VL: EIVMMQSPATLSVSPGERATLSCRASQSVNSNLAWYQQKPGQAPRLLINGASTRATGIPARFSGSGSGTEFTLTISSLQSEDFAIYYCQQYNDWPTFTFGGGTKVEINR", "NOT MET"],
  ["anti-MCP-1 mAb 1.1.1 (antibody, human IgG2, kappa, V domains shown) VH: QVQLVQSGAEVKKPGASVKVSCKVSGYTLTELSMHWVRQAPGNGLEWMGGFDPEDGETIYAQRFQGRVVMTEDPSTDTAYMELSSLRSEDTAVYYCATNEFWSGYFDYWGQGTLVTVSS VL: DIVMTQSPDSLAMSLGERATINCKSSQSVLYSSNNKNYLVWYQQKPGQPPKLLIYWASIRESGVPDRFSSSGSETDFTLTISSLQAEDVAVYYCQQYFSSPWTFGQGTKVEIKR", "MET"],
  ["anti-MCP-1 mAb 2.4.1 (antibody, V domains shown) VH: QVQLVQSGAEVKKPGASVKVSCKASGYTFTGYYLHWVRQAPGQGLEWMGWINPYNDGTNYAQKFQGRVTMTRDTSISTAYMELSRLRSDDTAVYYCARDIAAAGAVYFDYWGQGTLVTVSS VL: DIQMTQSPSSLSASVGDRVTITCQASQDITTYLNWYQQKPGKAPKLLIYDASNLETGVPSRFSGSGSGTDFTFTISSLQPEDIATYYCQQYDNLPITFGQGTRLEIKR", "MET"],
  ["anti-MCP-1 mAb 3.11.1 (antibody, human IgG4, kappa, V domains shown) VH: QVQLQESGPGLVKPSQTLSLTCTVSGGSISSGGNYWNWIRQHPGKGLEWIGYIYYSGNTYYNPSLKSRITISIDTSKNQFSLTLSSVTAADTAVYYCARDGGDDAFDIWGQGTMVTVSS VL: DIQMTQSPSSLSASVGDRVTITCQASQDISNYLNWYQQKPGKAPKLLIYDASNLETGVPSRFSGSGSGTDFTFTINSLQPEDIATYYCQEYNNLPYSFGQGTKLEIKR", "NOT MET"]
]}
